Test system: HepG2
experiment_summary: cell viability relative to DMSO; higher = less toxic
experimental_parameters: 72 h; 1 nM
readout_label: cell viability (%)
Report as a plain number; the unit % is understood.

[[record]]
compound = "CCN(CCCc1ccccc1)CCCc1ccccc1 [alverine]"
target = "HepG2"
readout_label = "cell viability"
value_measured = 107


(Q) Identify measured cell viability associated with CN[C@@H](C)[C@H]1[C@H](O)C[C@@]2(C)[C@@H]3CC[C@H]4C(C)(C)[C@@H](NC)CC[C@@]45C[C@@]35CC[C@]12C [cyclovirobuxin-D]
(A) 96.3

(Q) Identify measured cell viability associated with CN(C)c1ccc(/C=C2\C(=O)Nc3ccccc32)cc1 [SU4312]
(A) 96

---

Tested on: HepG2
experiment_summary: relative viability EC50 (midpoint between 100% and the lowest measured viability); higher = less toxic
experimental_parameters: 72 h
This listing pairs compounds with measured relative viability EC50.

(Q) For HepG2, give the measured relative viability EC50 of the entry CCN(CCCc1ccccc1)CCCc1ccccc1 [alverine]
(A) > 10 µM

(Q) For HepG2, give the measured relative viability EC50 of the entry Cc1ccc(-n2nc(C(C)(C)C)cc2NC(=O)NCc2cc(F)ccc2Oc2ccc3c(cnn3CCO)c2)cc1 [pexmetinib]
(A) 2.4 µM

(Q) For HepG2, give the measured relative viability EC50 of the entry Cl/C=C\C[N+]12CN3CN(CN(C3)C1)C2 [1-((Z)-3-chloroallyl)-1,3,5,7-tetraazaadamantan-1-ium]
(A) > 10 µM

(Q) For HepG2, give the measured relative viability EC50 of the entry O=C(C[S+]([O-])C(c1ccccc1)c1ccccc1)NO (centres undefined) [adrafinil]
(A) > 10 µM

(Q) For HepG2, give the measured relative viability EC50 of the entry "CCCCCCNC(=O)Nc1ccc(S(=O)(=O)Nc2ccc(CCNC[C@H](O)COc3ccc(O)cc3)cc2)cc1"
(A) > 10 µM

(Q) For HepG2, give the measured relative viability EC50 of the entry CN1C(=O)C(Cc2c[nH]c3ccccc23)NC1=S (centres undefined) [necrostatin-1]
(A) > 10 µM

(Q) For HepG2, give the measured relative viability EC50 of the entry "Cc1cccc(NC(=O)CN2CCC(c3ccccn3)CC2)c1"
(A) > 10 µM

(Q) For HepG2, give the measured relative viability EC50 of the entry O=c1[nH]c(=O)n([C@H]2C[C@H](O)[C@@H](CO)O2)cc1C(F)(F)F [trifluridine]
(A) 0.923 µM

(Q) For HepG2, give the measured relative viability EC50 of the entry O=C(/C=C/C=C/c1ccc2c(c1)OCO2)N1CCCCC1 [piperine]
(A) > 10 µM

---

Tested on: Caco-2
experiment_summary: drug sensitivity score (DSS) for viability; higher = more toxic; extreme values may be limits of the assay
experimental_parameters: 72 h
This listing pairs compounds with measured drug sensitivity score.
Would you mind answering with just the numeric figure?

Example results:
[[record]]
compound = "Cc1ccc(-n2sc(=O)n(Cc3ccc(F)cc3)c2=O)cc1"
target = "Caco-2"
value_measured = 0

[[record]]
compound = "CCCc1nc(C(C)(C)O)c(C(=O)O)n1Cc1ccc(-c2ccccc2-c2nnn[nH]2)cc1 [olmesartan]"
target = "Caco-2"
value_measured = 0

[[record]]
compound = "COc1cc2c(cc1F)C(c1ccccc1Cl)=Nc1c(n[nH]c1C)N2 [RG1530]"
target = "Caco-2"
value_measured = 3.5

[[record]]
compound = "O=C(CC1NCCCC1O)Cn1cnc2cc(Br)c(Cl)cc2c1=O (centres undefined) [halofuginone]"
target = "Caco-2"
value_measured = 15.7

[[record]]
compound = "CN(C)c1ccc(/C=C2\\C(=O)Nc3ccccc32)cc1 [SU4312]"
target = "Caco-2"
value_measured = 1.2


(Q) Identify measured drug sensitivity score associated with O=C(CCN1CCN(C(=O)OCc2cc(Cl)cc(Cl)c2)CC1)c1ccc2[nH]c(=O)oc2c1 [PF-8380]
(A) 0

(Q) Identify measured drug sensitivity score associated with O=c1ccc2ccccc2o1 [coumarin]
(A) 0

(Q) Identify measured drug sensitivity score associated with O=C1CS[C@@H](c2ccccc2Cl)c2cc(Cl)ccc2N1 (racemic)
(A) 0

(Q) Identify measured drug sensitivity score associated with Cc1noc(C)c1-c1cc(O)cc([C@@H](O)c2ccccc2)c1 [OXF-BD-02]
(A) 1.3

(Q) Identify measured drug sensitivity score associated with CN1CCN(C2CCN(C(=O)Nc3cc(Oc4ccc(NC(=O)C5(C(=O)Nc6ccc(F)cc6)CC5)c(F)c4)ccn3)CC2)CC1 [golvatinib]
(A) 5

(Q) Identify measured drug sensitivity score associated with CC(=O)NC[C@H]1CN(c2ccc(N3CCN(C(=O)CO)CC3)c(F)c2)C(=O)O1 [eperezolid]
(A) 0

(Q) Identify measured drug sensitivity score associated with N#Cc1cccc(C(=O)Nc2cc(-c3ccccc3)nn2-c2ccccc2)c1 [CDPPB]
(A) 0

(Q) Identify measured drug sensitivity score associated with O=C1NC(=S)NC(=O)C1C(=O)Nc1ccccc1 [merbarone]
(A) 0

(Q) Identify measured drug sensitivity score associated with CC[C@@H](C(N)=O)N1CCCC1=O [levetiracetam]
(A) 0

(Q) Identify measured drug sensitivity score associated with "Nc1ncc(Cc2ccc(Br)cc2)s1"
(A) 0

(Q) Identify measured drug sensitivity score associated with C#C[C@]1(O)CC[C@H]2[C@@H]3CCC4=CC(=O)CC[C@@H]4[C@H]3CC[C@@]21C [Norethindrone (Norethisterone)]
(A) 0

(Q) Identify measured drug sensitivity score associated with COc1cc2c(cc1OC)CN(C(=O)/C=C/c1c(-c3ccccc3)n(C)c3ncccc13)CC2 [SIS3]
(A) 1.8

(Q) Identify measured drug sensitivity score associated with COc1cc(OCc2cccc(-c3ccccc3)c2C)cc(OC)c1CN1CCCC[C@H]1C(=O)O [PD1-PDL-inhibitor-1]
(A) 0

(Q) Identify measured drug sensitivity score associated with CC(C)(C)n1nc(-c2cccc3ccccc23)c2c(N)ncnc21 [1-naphthyl-PP1]
(A) 0.1
